Cited source: ChEMBL document CHEMBL5120872

Test system: Peritoneal macrophage
assayExplanation: Cytotoxicity against BALB/c mouse peritoneal macrophages assessed as reduction in cell viability at 20 ug incubated for 48 hrs by MTT assay
Assay type: toxicity, cell-based
conditions: dose 20 µg

compound	Activity
CC(=O)N[C@H]1C(O)O[C@H](CO)[C@@H](O)[C@@H]1O[C@H](C)C(=O)N[C@@H](C)C(=O)N[C@H](CCC(=O)O)C(N)=O (stereo partly drawn) [MURAMYL DIPEPTIDE]	Non-Toxic
C[C@H](NC(=O)[C@@H](C)O[C@H]1[C@H](O)[C@@H](CO)O[C@H](OCc2ccccc2)[C@@H]1N=[N+]=[N-])C(=O)N[C@H](CCC(=O)O)C(N)=O	Non-Toxic
C[C@H](NC(=O)[C@@H](C)O[C@@H]1[C@@H](N=[N+]=[N-])[C@@H](OCc2ccccc2)O[C@@H]2CO[C@@H](c3ccccc3)O[C@@H]12)C(=O)N[C@H](CCC(=O)OCc1ccccc1)C(N)=O	Non-Toxic
